target: MAGI2_5, Q86UL8; experiment: holdup assay; design: key: below the threshold = too weak to quantify, mostly under pKd 3.1 to 4; conditions: plain residues with an end cap or a label only (N-terminal biotin on a linker: ttds)
Sequence (Q86UL8 915-1017): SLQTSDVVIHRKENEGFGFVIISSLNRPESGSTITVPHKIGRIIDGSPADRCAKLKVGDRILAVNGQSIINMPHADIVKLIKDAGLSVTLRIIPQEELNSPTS

- BINDER: "QRQARSETLV [HPV59-E6, Q81964]"
  pKd: 5.02
- BINDER: "RLPKIKETTV [FRMPD4, Q14CM0]"
  pKd: 3.9
